Give measured CC50 for each item. Keep answers brief.
ASSAY_PROCEDURE: NOVARTIS: Cytotoxicity against human hepatocellular carcinoma cell line (Huh7)
Format: toxicity, cell-based, Huh-7
ASSAY_SETUP: Huh7 cells (hepatocellular carcinoma cell line)

Answered cases to consult:
MOLECULE	RESULT
CCCN1CCC(c2nc(N3CCOCC3)ncc2-c2cc(C)no2)CC1	> 10 µM
CC(C)[C@@]1(NC(=O)[C@@H]2C[C@@H]3c4cccc5[nH]cc(c45)C[C@H]3N(C)C2)O[C@@]2(O)[C@@H]3CCCN3C(=O)[C@H](Cc3ccccc3)N2C1=O [DIHYDROERGOCRISTINE]	33.1 µM
COc1ccc(NC(=O)c2c(Cl)nc(Cl)c([N+](=O)[O-])c2C)cc1	> 10 µM
C=CCC1(Nc2ccccc2)CCCCC1	> 10 µM
COC(=O)C1=C(C)NC2=C(C(=O)CC(c3ccccc3Cl)C2)C1c1ccc(OC)c(OC)c1 (stereo unspecified)	> 100 µM
O=C(Cn1c2ccccc2c(=O)c2cc([N+](=O)[O-])ccc21)Nc1cccc(Cl)c1	> 10 µM
CC1CCC2C(C)C(O)OC3OC4(C)CCC1C32OO4 (stereo unspecified)	> 10 µM
CCc1ccc(C(Nc2cc(C)ccn2)c2ccc3cccnc3c2O)cc1 (stereo unspecified)	> 100 µM
c1ccc(C2=NN(c3ccccc3)C(c3ccc4c(c3)OCO4)N2c2ccc(N3CCOCC3)cc2)cc1 (stereo unspecified)	> 10 µM
O=C(C1CC1)N1CCOc2c(cc(-c3csc4ccccc34)cc2OCCc2ccccn2)C1	68.2 µM

Field: CC50. Fill in for each record below.
1. COc1ccc(C=NNc2nc(O)cc(-c3ccccc3)n2)cc1OC
2. CC1CC(C)CN(S(=O)(=O)c2ccc(C(=O)Nc3ccc(-c4nc5ccccc5o4)cc3)cc2)C1 (stereo unspecified)
3. CCCCCN(C(=O)c1ccc2ccccc2c1)C(CC)c1nc2ccccc2c(=O)n1-c1ccc(Cl)cc1C (stereo unspecified)
4. COc1ccc(CCNc2nc(NCCC3CCCN3C)ncc2C(=O)NCc2ccccc2)cc1OC (stereo unspecified)
5. CC[n+]1ccc(C=Cc2ccc(N(C)C)cc2)cc1

Result:
1: > 10 µM; 2: > 10 µM; 3: > 10 µM; 4: > 10 µM; 5: > 84.9 µM

Field: CC50. Fill in for each record below.
1. CCC(c1nc2ccccc2c(=O)n1-c1ccc(Cl)cc1C)N(CCc1ccccc1)C(=O)c1cccc(OC)c1 (stereo unspecified)
2. NC(=NOC(=O)c1ccccc1I)c1ccccn1
3. C/C=C/C(C(=O)NCCCC)N1C(=O)c2cc(NC(C)=O)ccc2NC(=O)[C@@H]1C (stereo partly specified)
4. O=C(CN1CCCC1)Nc1ccc(Cc2ccc(NC(=O)CN3CCCC3)cc2)cc1
5. CCCCCCC[N+](CC)(CC)CCCCc1ccc(Cl)cc1
6. O=C(c1cnsn1)N1CCCC(COc2cccc(CN3CCC(Cc4ccccc4)CC3)c2)C1 (stereo unspecified)
7. COc1cc(CN(CCCN2CCOCC2)C(=O)Nc2cccc(C)c2)ccc1OCc1ccccc1
8. CCCCSc1ncnc2c1c(-c1ccccc1)cn2-c1cccc(F)c1

Result:
> 10 µM
63 µM
7.59 µM
18.8 µM
> 10 µM
> 100 µM
> 10 µM
> 10 µM

Field: CC50. Fill in for each record below.
1. CCOC(=O)N1CCN(C(=O)C(=O)NNC(=O)COc2ccc(Cl)cc2Br)CC1
2. CC(C)(C)c1ccc(Oc2ccc(N3C(=O)C4CC=CCC4C3=O)cc2)cc1 (stereo unspecified)
3. O=C(/C=C/c1ccc(-c2cccc([N+](=O)[O-])c2)o1)Nc1nccs1
4. COc1cc(OC)cc(-n2c(=O)c3sccc3n(CC(=O)c3ccc(F)cc3)c2=O)c1
5. N#C/C(=C\C=C\c1ccc([N+](=O)[O-])o1)c1nc2ccccc2[nH]1

Result:
["> 10 µM", "> 10 µM", "> 10 µM", "> 10 µM", "> 10 µM"]

Field: CC50. Fill in for each record below.
1. COc1ccc(C)cc1-n1c(-c2ccc(Cl)cc2)cc2c1CC(C)(C)CC2=O
2. CC(C)CNC(=O)c1cnc(NCCCn2ccnc2)nc1NCC(C)C
3. Cc1n(C)c2ccccc2[n+]1CC(=O)c1ccccc1

Result:
> 10 µM
> 10 µM
> 100 µM

Field: CC50. Fill in for each record below.
1. CCN1CCN(C2CCN(Cc3cc4ccc(F)cc4n(CCSc4ccccc4)c3=O)CC2)CC1
2. CCCCn1c(NN=C2C(=O)Nc3ccccc32)nc2c1c(=O)[nH]c(=O)n2C
3. CCOC(=O)c1[nH]c(CSC#N)c(C(C)=O)c1C
4. COc1cccc(-c2ccc(O)c(CN(C)CCc3ccc(OC)c(OC)c3)c2)n1
5. CC1CCN(C(=O)C(C)N(c2ccccc2)S(C)(=O)=O)CC1 (stereo unspecified)
6. CCCCCCn1c2c(c(=N)c3ccccc31)CCC2
7. O=C(Nc1ccc(Oc2ccc(OC(F)(F)F)cc2)cc1)C1CC1
8. CC(C)(C)CC(=O)N1CCC[C@@H]2CN(C(=O)CCOc3ccccc3)CC[C@@H]21

Result:
["5.48 µM", "> 10 µM", "> 10 µM", "57.9 µM", "> 100 µM", "> 10 µM", "> 100 µM", "> 10 µM"]

Field: CC50. Fill in for each record below.
1. COc1ccccc1/C=C/C1=NC(=C\c2ccc(SC)cc2)/C(=O)O1
2. Cc1cc(C)n(-c2ccc(NC(=O)C3CCN(Cc4ccncc4)CC3)cc2)n1

Result:
1: > 10 µM; 2: > 100 µM

Attribution: ChEMBL document CHEMBL1156829
